Test system: parental BaF3 cells
Experiment: Proliferation of parental (untransformed) Ba/F3 cells maintained with IL3
Type: cell-based, murine
Conditions: parental Ba/F3 cells; read-out: Ba/F3 IC 50
quantity: pIC50
Give bare numbers, as −log10 of the molar value.

The molecule CC(C)NC(=O)CN1CCN(c2cccc(-c3cnc4ccc(N5CCCC5c5cccc(F)c5)nn34)n2)CC1 (stereo not shown) showed pIC50 equal to 5.30

* * *

Biological target: Tel-TrkB (Homo sapiens)
Construct: dimerization domain of Tel (ETV6) transcription factor (fusion partner, human ETV6 P41212); expressed in transfected cells; host or cells: luciferase expressing Ba/F3 murine hematopoietic progenitor cells; the other entry of the earlier key: ETV6 (P41212, Transcription factor ETV6)
Sequence (Q16620 538-822 limits assumed): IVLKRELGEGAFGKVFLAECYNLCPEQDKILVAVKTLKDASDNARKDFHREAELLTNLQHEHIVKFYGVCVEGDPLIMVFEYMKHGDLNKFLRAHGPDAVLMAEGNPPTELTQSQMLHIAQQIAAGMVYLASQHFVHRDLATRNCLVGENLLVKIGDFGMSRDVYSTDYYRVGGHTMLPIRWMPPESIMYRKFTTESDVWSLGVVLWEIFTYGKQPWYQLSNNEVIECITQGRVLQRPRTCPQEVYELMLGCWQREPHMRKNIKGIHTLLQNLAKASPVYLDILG
Test: Inhibition of proliferation of Ba/F3 cells expressing Tel-TrkB (BaF3/Tel-TrkB)
Assay type: cell-based
Details: Ba/F3 Tel-TrkB cells; read-out: Ba/F3 Tel-TrkB IC 50
Kindly state IC50 for each of the entries shown.

Count: 3. Required value per item: IC50.
1. N#Cc1cccc(-n2cnc3ccc(N4CCCC4c4cccc(F)c4)nc32)c1 (stereo not shown)
2. OCCC1CCN(c2cccc(-c3cnc4ccc(N5CCOCC5c5cccc(F)c5)nn34)n2)CC1 (stereo not shown)
3. Cc1c[nH]c(C2CCN(c3cccc(-c4cnc5ccc(N6CCOCC6c6cccc(F)c6)nn45)n3)CC2)n1 (stereo not shown)

A)
["150 nM", "24 nM", "53 nM"]

Answer for every listed entry: what is its IC50? The entries follow.
1. Fc1cccc(C2COCCN2c2ccc3ncc(-c4cccc(N5CCOCC5)n4)n3n2)c1 (stereo not shown)
2. CNC1CCN(c2cc(-c3cccc(-c4cnc5ccc(N6CCCC6c6cccc(F)c6)nn45)n3)ccn2)CC1 (stereo not shown)
3. OCCNc1ncc(-c2cnc3ccc(N4CCCC4c4cccc(F)c4)nn23)cn1 (stereo not shown)
4. CN(C)c1nccc(-c2cccc(-c3cnc4ccc(N5CCCC5c5cccc(F)c5)nn34)n2)n1 (stereo not shown)

A)
1. 6.2 nM
2. 147 nM
3. 129 nM
4. 150 nM
